measurement_target: Cholecystokinin receptor type A (Cavia porcellus)
Sequence (Q63931 whole entry): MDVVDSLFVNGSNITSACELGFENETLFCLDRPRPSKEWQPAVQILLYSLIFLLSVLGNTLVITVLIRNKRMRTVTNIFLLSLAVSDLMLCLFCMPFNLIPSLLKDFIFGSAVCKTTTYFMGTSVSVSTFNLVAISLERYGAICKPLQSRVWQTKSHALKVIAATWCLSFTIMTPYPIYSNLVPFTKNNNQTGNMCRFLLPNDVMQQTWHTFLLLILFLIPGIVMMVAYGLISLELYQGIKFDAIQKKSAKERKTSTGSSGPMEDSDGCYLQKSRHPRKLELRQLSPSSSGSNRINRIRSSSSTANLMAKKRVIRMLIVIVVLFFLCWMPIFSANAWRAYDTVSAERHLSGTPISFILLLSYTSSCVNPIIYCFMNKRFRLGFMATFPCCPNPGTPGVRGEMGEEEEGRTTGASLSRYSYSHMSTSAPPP
method_summary: Inhibitory activity towards binding of [125I]Bolton-Hunter-CCK-8 to CCKA receptor in guinea pig pancreatic tissue
outcome_measure: IC50 (nM)

A: CC(C)C[C@H](NC(=O)[C@H](Cc1c[nH]c2ccccc12)NC(=O)OC(C)(C)C)C(=O)N1CCC(Cc2ccccc2)CC1
B: Cc1cccc(NC(=O)N[C@H](CCC(=O)OCc2ccccc2)C(=O)N2CCC(C(=O)c3ccccc3)CC2)c1
C: Cc1cccc(NC(=O)N[C@H](CCC(=O)OCc2ccccc2)C(=O)N2CCN(C(=O)c3ccccc3)CC2)c1
D: CCCC[C@@H](NC(=O)Nc1cccc(C)c1)C(=O)N1CCC(C(=O)c2ccccc2)CC1
// TODO: order the 4 molecules above by IC50, descending Output spec: a listing of the labels in the requested order. D, C, B, A
(D: 2500 nM, C: 1500 nM, B: 900 nM, A: 200 nM)

Origin of the recorded values: ChEMBL document CHEMBL1128107
